substrate: F protein of respiratory syncytial virus (RSV-Long strain), on infectious virus (respiratory syncytial virus (RSV-Long strain)) (UniProt P12568); test: cell-based or functional assay
Sequence (P12568 26-574): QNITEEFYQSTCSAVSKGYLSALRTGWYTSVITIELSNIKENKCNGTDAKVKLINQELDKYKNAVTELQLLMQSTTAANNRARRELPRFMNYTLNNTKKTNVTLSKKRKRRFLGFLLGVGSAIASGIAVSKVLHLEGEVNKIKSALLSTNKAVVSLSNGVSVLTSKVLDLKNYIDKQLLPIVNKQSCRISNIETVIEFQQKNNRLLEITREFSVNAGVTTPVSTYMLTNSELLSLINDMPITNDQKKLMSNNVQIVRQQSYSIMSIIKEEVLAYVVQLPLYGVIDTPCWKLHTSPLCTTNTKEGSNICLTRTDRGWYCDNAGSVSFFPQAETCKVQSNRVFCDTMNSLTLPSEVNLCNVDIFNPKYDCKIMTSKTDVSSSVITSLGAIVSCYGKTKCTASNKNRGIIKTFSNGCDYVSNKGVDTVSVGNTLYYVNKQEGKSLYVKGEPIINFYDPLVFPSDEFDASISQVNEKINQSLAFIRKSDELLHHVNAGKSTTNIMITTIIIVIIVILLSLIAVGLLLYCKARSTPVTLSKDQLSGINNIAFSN
property measured: Mean IC50 (Control) µg/ml, RSV microneutralization

| binder | measured result |
| --- | --- |
| Clone 18 (IgG) (antibody, V domains shown) VH: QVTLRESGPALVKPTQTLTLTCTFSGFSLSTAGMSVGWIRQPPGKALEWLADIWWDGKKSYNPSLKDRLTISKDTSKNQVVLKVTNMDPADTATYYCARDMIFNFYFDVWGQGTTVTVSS VL: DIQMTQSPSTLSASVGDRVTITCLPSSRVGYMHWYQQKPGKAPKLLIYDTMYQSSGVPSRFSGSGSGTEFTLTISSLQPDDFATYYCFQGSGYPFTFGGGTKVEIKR | 0.0354 µg/mL |
| Clone 28 (Fab) (Fab, V domains shown) VH: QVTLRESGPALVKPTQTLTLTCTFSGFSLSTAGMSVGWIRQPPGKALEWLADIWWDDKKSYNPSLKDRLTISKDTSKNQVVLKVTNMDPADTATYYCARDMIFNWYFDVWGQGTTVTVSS VL: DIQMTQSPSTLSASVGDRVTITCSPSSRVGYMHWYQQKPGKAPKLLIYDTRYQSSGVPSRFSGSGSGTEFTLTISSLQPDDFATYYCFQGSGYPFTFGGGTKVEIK | 0.157 µg/mL |
| Clone 21 (IgG) (antibody, V domains shown) VH: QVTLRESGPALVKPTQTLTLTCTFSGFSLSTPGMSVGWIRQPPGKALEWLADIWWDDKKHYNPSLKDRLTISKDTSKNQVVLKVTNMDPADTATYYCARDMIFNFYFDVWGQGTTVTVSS VL: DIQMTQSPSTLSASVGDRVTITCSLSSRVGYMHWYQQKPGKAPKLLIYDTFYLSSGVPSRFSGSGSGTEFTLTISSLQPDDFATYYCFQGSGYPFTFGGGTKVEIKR | 0.0223 µg/mL |

All figures here come from patent US20020098189A1.
